Hello, the source for this data is patent US20060276464A1, in case you need it.

Target: UniProt:Q8N474
Sequence (Q8N474 32-314): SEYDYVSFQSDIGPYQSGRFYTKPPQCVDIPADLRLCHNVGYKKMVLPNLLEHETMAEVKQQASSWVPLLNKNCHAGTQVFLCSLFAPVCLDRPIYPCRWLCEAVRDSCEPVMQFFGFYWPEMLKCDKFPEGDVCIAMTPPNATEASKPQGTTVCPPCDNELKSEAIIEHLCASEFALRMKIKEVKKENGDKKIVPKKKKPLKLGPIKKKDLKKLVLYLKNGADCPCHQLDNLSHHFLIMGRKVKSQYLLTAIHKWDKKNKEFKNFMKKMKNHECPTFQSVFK
Assay: Cell-based assay for in vitro measurement of SFRP-1/SARP2 antagonist activity (U2OS cells co-transfected with 16x TCF-tk-Luciferase reporter, Wnt and hSFRP-1);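 further: U2OS cells co-transfected with a TCF-tk luciferase reporter, a Wnt vector, hSFRP-1 or empty vector and CMV-βgal, luciferase luminescence read in cell lysates alongside βgal activity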
Settings: U2OS, read-out: Fold Induction with SFRP-1, U2OS cells, single dose 10 μM, luciferase reporter, fold induction over SFRP-1 control
readout-label: fold induction at 10 µM
Keep the answer to the number alone.

// worked examples, fold induction at 10 µM included
molecule="O=C(NCCNS(=O)(=O)c1cc(S(=O)(=O)c2ccccc2)ccc1C(F)(F)F)c1ccc(C(F)(F)F)cc1 [Example 781]" readout_label="fold induction at 10 µM" value_measured=1.2
molecule="CN(C)c1ccccc1S(=O)(=O)c1ccc(C(F)(F)F)c(S(=O)(=O)NC2CCNCC2)c1 [Example 862]" readout_label="fold induction at 10 µM" value_measured=4
molecule="O=C(c1ccc(F)cc1)N1CCC(NS(=O)(=O)c2cc(S(=O)(=O)c3ccccc3)ccc2Cl)CC1 [Example 656]" readout_label="fold induction at 10 µM" value_measured=2.2
molecule="Cc1ccc(S(=O)(=O)c2ccccc2)cc1S(=O)(=O)NCCC(=O)NC1CCCc2ccccc21 (stereo not drawn) [Example 667]" readout_label="fold induction at 10 µM" value_measured=0.9
molecule="CC(C)(C)c1ccc(C(=O)N2CCC(NS(=O)(=O)c3cc(S(=O)(=O)c4ccccc4)ccc3C(F)(F)F)C2)cc1 (stereo not drawn) [Example 761]" readout_label="fold induction at 10 µM" value_measured=3.2
molecule="N#CCNS(=O)(=O)c1cc(S(=O)(=O)c2ccccc2)ccc1Cl [Example 663]" readout_label="fold induction at 10 µM" value_measured=1

fold induction at 10 µM lookup needed for Cc1cc(S(=O)(=O)c2ccccc2)cc(S(=O)(=O)NC2CCNCC2)c1C [Example 922] , thanks.
1.1
